The values you see were collected from PubChem BioAssay (NCATS).

target: Cytochrome P450 1A2 (Homo sapiens) (UniProt P05177); experiment: p450-cyp1a2 (AID 410); settings: recombinant CYP1A2, luciferin-ME demethylation, luminescence; series mostly up to 57 µM
Sequence (P05177 whole entry, looked up): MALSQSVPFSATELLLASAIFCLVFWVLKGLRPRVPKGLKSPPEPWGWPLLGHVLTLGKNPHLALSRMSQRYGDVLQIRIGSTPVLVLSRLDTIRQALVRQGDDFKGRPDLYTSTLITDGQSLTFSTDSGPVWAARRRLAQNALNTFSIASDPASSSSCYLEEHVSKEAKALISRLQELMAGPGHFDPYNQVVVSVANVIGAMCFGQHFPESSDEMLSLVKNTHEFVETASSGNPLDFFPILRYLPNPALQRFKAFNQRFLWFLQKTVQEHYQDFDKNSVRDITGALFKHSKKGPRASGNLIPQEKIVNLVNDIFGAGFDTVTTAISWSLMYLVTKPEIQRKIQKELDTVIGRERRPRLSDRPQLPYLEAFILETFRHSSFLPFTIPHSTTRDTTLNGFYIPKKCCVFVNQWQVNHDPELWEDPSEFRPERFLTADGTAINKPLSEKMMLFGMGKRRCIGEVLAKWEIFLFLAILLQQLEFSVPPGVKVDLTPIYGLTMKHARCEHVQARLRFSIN
Results filed as inconclusive are left out. The source made the active and inactive calls. The call rests on the fitted dose curve.
Choose one outcome from this list and give only that: active, inactive

QUERY: Query: recorded result category for O=c1[nH]c(=O)n([C@@H]2C[C@H](O)[C@H](CO)O2)cc1I in this test
RESULT: inactive

QUERY: Query: recorded result category for CN(C)c1ccc(-c2cncnc2NCc2ccccc2)cc1 in this test
RESULT: active

QUERY: Query: recorded result category for CN1CCN(c2ncc3nc(-c4cn(C)c5ccccc45)c(=O)n(CCc4ccccc4)c3n2)CC1 in this test
RESULT: inactive

QUERY: Query: recorded result category for COc1ccccc1-c1cc(Nc2ccn[nH]2)ncn1 in this test
RESULT: active

QUERY: Query: recorded result category for O=C(c1ccncc1)N1CCC[C@@]2(CCN(c3ccccc3)C2)C1 in this test
RESULT: inactive

====

test system: C2A; test: qHTS profiling for inhibitors of Plasmodium falciparum proliferation (AID 504749); further: nearly all actives have a fitted effect of over 60% in size; conditions: P. falciparum in erythrocytes, SYBR Green DNA, 72 h; series mostly up to 12.8 µM
Results filed as inconclusive are left out. Calls of active or inactive are those of the source. Calls come from the whole dose curve; as a rule, active = well fitted inhibition curve with a large enough effect; inconclusive = small, poorly fitted or top-dose-only effect; inactive = flat fitted curve, though single readings scatter.
Result type: outcome

CN[C@@H]1[C@H](O[C@@H]2O[C@H](CO)[C@@H](N)[C@H](O)[C@@H]2O)O[C@H]2C[C@@H](N)[C@@H](O[C@H]3[C@@H](O)[C@H](O)[C@H](N)C[C@@H]3N)O[C@H]2[C@H]1O :: inactive
CC[C@H](NC(C)C)[C@H](O)c1ccc(O)c(O)c1 :: inactive
CCn1cc(C(=O)O)c(=O)c2cc(F)c(N3CCN[C@@H](C)C3)c(F)c21 :: inactive

====

system: HB3; assay: qHTS profiling for inhibitors of Plasmodium falciparum proliferation (AID 504749); further: nearly all actives have a fitted effect of over 60% in size; conditions: P. falciparum in erythrocytes, SYBR Green DNA, 72 h; series mostly up to 12.8 µM
Results filed as inconclusive are left out. The source made the active and inactive calls. Calls come from the whole dose curve; as a rule, active = well fitted inhibition curve with a large enough effect; inconclusive = small, poorly fitted or top-dose-only effect; inactive = flat fitted curve, though single readings scatter.
Choose one outcome from this list and give only that: active, inactive

// below: answered compounds
CC1(C)S[C@@H]2[C@H](NC(=O)[C@H](C(=O)O)c3ccsc3)C(=O)N2[C@H]1C(=O)O :: inactive
COc1ccccc1OC[C@H](O)COC(N)=O :: inactive
CC(C)NC[C@H](O)c1cc(O)cc(O)c1 :: inactive
CCN(CC)CCC[C@H](C)Nc1c2ccc(Cl)cc2nc2ccc(OC)cc12 :: active
CC[C@]1(C)CC(=O)NC1=O :: inactive

QUERY: Query: recorded result category for CCC[C@H]1C(=O)N2C(N(C)C)=Nc3ccc(C)cc3N2C1=O in this test
RESULT: inactive

====

Would you mind telling me the reported Potency of each entry?
target: Lysosomal acid glucosylceramidase (Homo sapiens); assay: Glucocerebrosidase-p2 (AID 348); details: purified GBA, blue fluorogenic substrate, 40 min; further: potency means the concentration at half of the fitted maximal effect
Active and inactive are the calls of the source. Cut-off read from the data, not from the text of the source: active = potency below about 10 µM; inactive = the rest.

Some entries whose results are on file:
COc1ccc2[nH]cc(CCNc3ncnc4ccc(-c5ccc(C(=O)N(C)C)cc5)cc34)c2c1 :: > 11.4 µM (inactive)
c1cn(-c2cc(-c3ccc4c(c3)OCO4)ncn2)cn1 :: > 11.4 µM (inactive)

Record Potency per entry; entries follow.
1. COc1cccc(Cn2c(=O)c(C)nc3cnc(Oc4ccccc4)nc32)c1
2. COc1ccccc1-c1nc(NCc2cnc(C)cn2)c2ccccc2n1
3. COc1cccc(-c2nccc(NCc3ccccc3)n2)c1

RESULT:
> 11.4 µM (inactive)
> 11.4 µM (inactive)
> 11.4 µM (inactive)

Record Potency per entry; entries follow.
1. COCCn1c(=O)c(-c2ccc(F)cc2)nc2cncnc21
2. COCC(=O)N1CCC2(CCCN(c3ncccn3)C2)CC1
3. N#Cc1cccc(NC(=O)N2CCCC3(CCN(C(=O)c4cnccn4)CC3)C2)c1

RESULT:
1: > 11.4 µM (inactive); 2: > 11.4 µM (inactive); 3: > 11.4 µM (inactive)

Record Potency per entry; entries follow.
1. CCNc1ncc2nc(-c3ccc(F)cc3)c(=O)n(-c3ccc(OC)cc3)c2n1
2. CCNc1ncc2nc(-c3ccc(OC)cc3)c(=O)n(Cc3ccc(F)cc3)c2n1
3. CN(C)Cc1ccccc1-c1ccc2ncnc(N3CCOCC3)c2c1

RESULT:
["> 11.4 µM (inactive)", "> 11.4 µM (inactive)", "> 11.4 µM (inactive)"]
